Test: plasmodial surface anion channel blockers, osmotic lysis – cell-based, P. falciparum Indochina, OD700, 18 h, primary screen (AID 1157)
Settings: P. falciparum Indochina infected erythrocytes, osmotic lysis OD700, 18 h; higher = more signal, called active from +8 up or from −8 down
Activity calls are given as the source filed them.
measurement kind: z-score

Answered cases to consult:
compound	z-score
C=CCC(OC(C)=O)[C@@H]1[C@@H](N(Cc2ccc(-c3cccc(C(F)(F)F)c3)o2)C(=O)Cc2ccc(OC)cc2)c2cc(OCCCO)ccc2N1C(=O)c1ccc(-c2ccccc2)cc1 (some centres not stated)	0.0651 (inactive)
COc1cc(NN2C(C(O)c3ccco3)C=CC3C(=O)N(C)C(=O)C32)cc(OC)c1OC (configuration not stated)	1.1 (inactive)
O=C1C2C=CC(C(O)c3cccc(O)c3)N(Nc3ccc([N+](=O)[O-])cc3)C2C(=O)N1c1ccccc1 (configuration not stated)	1.22 (inactive)

Then there is this compound:
Req: Quick one: z-score of CCOC(=O)C[C@H]1[C@H](OC(=O)c2cc3ccccc3oc2=O)[C@@H](NC(=O)c2ccc3ccccc3n2)c2cc(OCCCO)ccc2N1C(=O)Cc1ccc(OC)cc1 ?
Resp: 0.745 (inactive)
